- Method description: recombinant UMI read abundance after kanamycin selection (control-corrected) (log10(CPM+1)); higher = more efficient recombination; extreme values may be limits of the assay; sequences stand for … in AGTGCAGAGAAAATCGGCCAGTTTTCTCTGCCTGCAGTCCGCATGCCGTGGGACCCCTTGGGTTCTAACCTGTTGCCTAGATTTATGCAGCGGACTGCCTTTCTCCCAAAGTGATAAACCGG…AGGTTGGTTTCACT; site = the 11-nt donor
Measured property: recombinant UMI read abundance (log10)
Provide a numeric answer; units are not to be included.

Record AGGCACTCATGGACCGGTTTTCCCGGTAATCCGTATTTGCA (site AGGCACTCTTG) . Reported recombinant UMI read abundance (log10): 2.66

Record AAGCCCGCATGGACCGGTTTTCCCGGTAATCCGTATTTGGG (site AAGCCCGCTCC) . Reported recombinant UMI read abundance (log10): 0.0203

Record CAGGGCCCATGGACCGGTTTTCCCGGTAATCCGTATTTGCA (site CAGGGCCCTTG) . Reported recombinant UMI read abundance (log10): 1.24

Record CTGTAGTCATGGACCGGTTTTCCCGGTAATCCGTATTTGTC (site CTGTAGTCTGA) . Reported recombinant UMI read abundance (log10): 3.24

Record GAACTGGCATGGACCGGTTTTCCCGGTAATCCGTATTTGCT (site GAACTGGCTAG) . Reported recombinant UMI read abundance (log10): 0.00438

----------
- Method description: recombinant UMI read abundance after kanamycin selection (control-corrected) (log10(CPM+1)); higher = more efficient recombination; extreme values may be limits of the assay; sequences stand for … in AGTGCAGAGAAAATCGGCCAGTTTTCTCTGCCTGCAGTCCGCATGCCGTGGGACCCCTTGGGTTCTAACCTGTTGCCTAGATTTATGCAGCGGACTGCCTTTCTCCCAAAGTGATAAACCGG…AGGTTGGTTTCACT; site = the 11-nt donor
Measured property: recombinant UMI read abundance (log10)
Provide a numeric answer; units are not to be included.

TACTTGACATGGACCGGTTTTCCCGGTAATCCGTATTTGCA (site TACTTGACTGG)    0
GACTTGGCATGGACCGGTTTTCCCGGTAATCCGTATTTGAA (site GACTTGGCTTT)    0.93
TATCTTCCATGGACCGGTTTTCCCGGTAATCCGTATTTGGT (site TATCTTCCTAC)    0.00632
GTAGAGGCATGGACCGGTTTTCCCGGTAATCCGTATTTGTG (site GTTGAGGCTCA)    0.247

Okay, now this sequence:
Record CTGGAAACATGGACCGGTTTTCCCGGTAATCCGTATTTGCG (site CTGGAAACTAG) . Reported recombinant UMI read abundance (log10): 0

----------
Below: a set of entries, each annotated with reported recombinant barcode read abundance (log10).
- Method description: recombinant barcode read abundance after kanamycin selection (control-corrected) (log10(CPM+1)); higher = more efficient recombination; sequences stand for … in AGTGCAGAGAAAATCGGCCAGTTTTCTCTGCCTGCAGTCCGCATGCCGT…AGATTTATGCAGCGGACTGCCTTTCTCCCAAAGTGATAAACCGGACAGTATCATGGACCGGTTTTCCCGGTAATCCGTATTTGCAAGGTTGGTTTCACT; site = the 11-nt target
Provide a numeric answer; units are not to be included.

CGGGGTCCTTGGGTTCTAACCTGTTGCTA (site CGGTGTCCTTA)    0.35
TGTTCTCCTTGGGTTCTAACCTGTTGCCT (site GGTTCTCCTAG)    0.064
CACACCGCTTGGGTTCTAACCTGTTGCCT (site CACACGGCTAG)    0.0403
GGTTCTCCTTGGGTTCTAACCTGTTGCCT (site CGTTCTCCTAG)    0.0451

Record GATCGAGCTTGGGTTCTAACCTGTTGCGA (site GATCGAGCTTC) . Reported recombinant barcode read abundance (log10): 0.921

Record CGATGGACTTGGGTTCTAACCTGTTGCCG (site CAATGGGCTCG) . Reported recombinant barcode read abundance (log10): 0.102

Record AATGTACCTTGGGTTCTAACCTGTTGCCT (site GATGTACCTAG) . Reported recombinant barcode read abundance (log10): 0.0545

Record TAGTTGACTTGGGTTCTAACCTGTTGCCA (site TAGTTCACTTG) . Reported recombinant barcode read abundance (log10): 0.00742

Record AAAGTCCCTTGGGTTCTAACCTGTTGCCT (site CAAGTCCCTAG) . Reported recombinant barcode read abundance (log10): 0.361

Record TCTGGGCCTTGGGTTCTAACCTGTTGCTA (site TCTGGGCCTTA) . Reported recombinant barcode read abundance (log10): 0.364
